- PROTOCOL_NOTES: Mammalian cell cytotoxicity assay, HEK293T (CellTiter-Glo, 72 h)
- MEASUREMENT_CONTEXT: human, HEK293T cells
Recorded CC50 at 72 h, one value per entry.

>  <COMPOUND>
CN(C)Cc1ccc(S(=O)(=O)n2ccc(/C=C/C(=O)NO)c2)cc1 [resminostat, reference compound]

>  <INEQUALITY_OPERATOR>
=

>  <CC50 at 72 h, nM>
3550

$$$$
>  <COMPOUND>
COc1ccc(C(=O)c2cn(C(C)C)c3ncnc(N)c23)cc1NC(=O)Nc1ccc(Cl)cc1Cl [CE-245677]

>  <INEQUALITY_OPERATOR>
>

>  <CC50 at 72 h, nM>
9950

$$$$
>  <COMPOUND>
CO[C@@H]1[C@H](N(C)C(=O)c2ccccc2)C[C@H]2O[C@]1(C)n1c3ccccc3c3c4c(c5c6ccccc6n2c5c31)C(=O)NC4 [Midostaurin]

>  <INEQUALITY_OPERATOR>
>

>  <CC50 at 72 h, nM>
9950

$$$$
>  <COMPOUND>
CN(C)c1ccc2nc3ccc(=[N+](C)C)cc-3sc2c1 [Methylthioninium Chloride]

>  <INEQUALITY_OPERATOR>
=

>  <CC50 at 72 h, nM>
1770

$$$$
>  <COMPOUND>
O=C(NC1CCN(CCCCC2(C(=O)NCC(F)(F)F)c3ccccc3-c3ccccc32)CC1)c1ccccc1-c1ccc(C(F)(F)F)cc1 [Lomitapide]

>  <INEQUALITY_OPERATOR>
=

>  <CC50 at 72 h, nM>
791

$$$$
>  <COMPOUND>
CCCCCC(=O)O[C@]1(C(C)=O)CC[C@H]2[C@@H]3CCC4=CC(=O)CC[C@]4(C)[C@H]3CC[C@@]21C [Hydroxyprogesterone caproate]

>  <INEQUALITY_OPERATOR>
>

>  <CC50 at 72 h, nM>
9950

$$$$
>  <COMPOUND>
COc1ccc(-c2nc(N3CCOCC3)c3sc(CN(C)c4ncc(C(=O)NO)cn4)cc3n2)cn1 [CUDC-907, reference compound]

>  <INEQUALITY_OPERATOR>
=

>  <CC50 at 72 h, nM>
27

$$$$

----------
- SUBJECT_OF_TEST: P. berghei-luciferase sporozoites
- PROTOCOL_NOTES: microbe, parasite or virus in culture
- Format: cell-based, Plasmodium berghei
- MEASUREMENT_CONTEXT: liver-stage parasites, 48 hours in culture; read-out: Liver stage 48h EC50
Where a name gives a salt, the structure may show the parent alone.
Recorded EC50, one value per entry.
QUANTITY_NAME: EC50

>  <COMPOUND>
CCC(CC)Nc1cc(C)nc(Oc2c(C)cc(C)cc2C)c1C

>  <SUBJECT_OF_TEST>
P. berghei-luciferase sporozoites

>  <QUANTITY_NAME>
EC50

>  <ASSAY_RESULT>
6260 nM

$$$$
>  <COMPOUND>
COc1cc2c(Nc3ccc(NC(=O)c4ccccc4)cc3)ncnc2cc1OCCCN1CCOCC1

>  <SUBJECT_OF_TEST>
P. berghei-luciferase sporozoites

>  <QUANTITY_NAME>
EC50

>  <ASSAY_RESULT>
4330 nM

$$$$
>  <COMPOUND>
Cc1cc(-c2cc(O)ccc2Cl)cc2nnc(Nc3ccc(OCCN4CCCC4)cc3)nc12 [TG 100572 (Hydrochloride)]

>  <SUBJECT_OF_TEST>
P. berghei-luciferase sporozoites

>  <QUANTITY_NAME>
EC50

>  <ASSAY_RESULT>
642 nM

$$$$
>  <COMPOUND>
COc1ccc(C[C@H]2NC[C@H](O)[C@H]2OC(C)=O)cc1

>  <SUBJECT_OF_TEST>
P. berghei-luciferase sporozoites

>  <QUANTITY_NAME>
EC50

>  <ASSAY_RESULT>
266 nM

$$$$
>  <COMPOUND>
Cc1[nH]c2ccccc2c1CCNCc1ccc(/C=C/C(=O)NO)cc1 [Panobinostat Lactate]

>  <SUBJECT_OF_TEST>
P. berghei-luciferase sporozoites

>  <QUANTITY_NAME>
EC50

>  <ASSAY_RESULT>
131 nM

$$$$
>  <COMPOUND>
CN[C@@H]1C[C@H]2O[C@@](C)([C@@H]1OC)n1c3ccccc3c3c4c(c5c6ccccc6n2c5c31)C(=O)N[C@H]4O

>  <SUBJECT_OF_TEST>
P. berghei-luciferase sporozoites

>  <QUANTITY_NAME>
EC50

>  <ASSAY_RESULT>
2150 nM

$$$$
>  <COMPOUND>
CN(C)CCNc1nc2cc(O)ccc2c2c1C(=O)c1ccccc1-2

>  <SUBJECT_OF_TEST>
P. berghei-luciferase sporozoites

>  <QUANTITY_NAME>
EC50

>  <ASSAY_RESULT>
1500 nM

$$$$
>  <COMPOUND>
Cc1nc(N2CCN(Cc3ccc(F)cc3)C2=O)sc1C(=O)NCc1cccnc1

>  <SUBJECT_OF_TEST>
P. berghei-luciferase sporozoites

>  <QUANTITY_NAME>
EC50

>  <ASSAY_RESULT>
> 10000 nM

$$$$

----------
- PROTOCOL_NOTES: in vitro
- MEASUREMENT_CONTEXT: human
QUANTITY_NAME: CC50

>  <COMPOUND_SMILES>
CCN(CCO)CCCOc1ccc2c(Nc3cc(CC(=O)Nc4cccc(F)c4)n[nH]3)ncnc2c1

>  <QUANTITY_NAME>
CC50

>  <ASSAY_RESULT>
> 9.99 µM

$$$$

----------
- PROTOCOL_NOTES: Mammalian cell cytotoxicity assay, HEK293T (CellTiter-Glo, 72 h)
- MEASUREMENT_CONTEXT: human, HEK293T cells
Counter-ions that a name gives are not always drawn.
Recorded CC50 at 72 h, one value per entry.

>  <COMPOUND>
O=C(NO)c1cnc(N2C[C@@H]3[C@H](C2)[C@H]3NCc2ccc3cc(F)ccc3n2)nc1 [CHR-3996]

>  <INEQUALITY_OPERATOR>
=

>  <CC50 at 72 h (nM)>
920

$$$$
>  <COMPOUND>
CCC1=C[C@@H]2CN(C1)Cc1c([nH]c3ccccc13)[C@@](C(=O)OC)(c1cc3c(cc1OC)N(C)[C@H]1[C@@](O)(C(=O)OC)[C@H](OC(C)=O)[C@]4(CC)C=CCN5CC[C@]31[C@@H]54)C2 [Vinorelbine]

>  <INEQUALITY_OPERATOR>
=

>  <CC50 at 72 h (nM)>
2980

$$$$
>  <COMPOUND>
CC(=O)O[C@@]12CO[C@@H]1C[C@H](O)[C@@]1(C)C(=O)[C@H](O)C3=C(C)[C@@H](OC(=O)[C@H](O)[C@@H](NC(=O)OC(C)(C)C)c4ccccc4)C[C@@](O)([C@@H](OC(=O)c4ccccc4)[C@H]21)C3(C)C [Docetaxel]

>  <INEQUALITY_OPERATOR>
>

>  <CC50 at 72 h (nM)>
9950

$$$$
>  <COMPOUND>
CC[C@H](NC(=O)[C@H](C)NC)C(=O)N1C[C@@H](O)C[C@H]1Cc1c(-c2[nH]c3cc(F)ccc3c2C[C@@H]2C[C@H](O)CN2C(=O)[C@H](CC)NC(=O)[C@H](C)NC)[nH]c2cc(F)ccc12 [Birin/apant]

>  <INEQUALITY_OPERATOR>
>

>  <CC50 at 72 h (nM)>
9950

$$$$
>  <COMPOUND>
COc1cccc2c1C(=O)c1c(O)c3c(c(O)c1C2=O)C[C@@](O)(C(=O)CO)C[C@@H]3O[C@H]1C[C@H](N)[C@@H](O)[C@H](C)O1 [Epirubicin HCl]

>  <INEQUALITY_OPERATOR>
=

>  <CC50 at 72 h (nM)>
103

$$$$

----------
Recorded EC50, one value per entry.
- SUBJECT_OF_TEST: P. berghei-luciferase sporozoites
- PROTOCOL_NOTES: microbe, parasite or virus in culture
- Type: cell-based, Plasmodium berghei
- MEASUREMENT_CONTEXT: liver-stage parasites, 48 hours in culture; read-out: Liver stage 48h EC50
QUANTITY_NAME: EC50 (µM)

>  <COMPOUND>
Cc1ccc(CCCO)c(NCc2ccc3nc(NCCCN4CCOCC4)n(Cc4nc(C)ccc4O)c3c2)c1 [TMC-353121]

>  <INEQUALITY_OPERATOR>
>

>  <ASSAY_RESULT>
10

$$$$
>  <COMPOUND>
Oc1ccc(CCN2CCC(Nc3nc4ccccc4n3Cc3ccc(F)cc3)CC2)cc1 [Desmethylastemizole]

>  <INEQUALITY_OPERATOR>
=

>  <ASSAY_RESULT>
0.07

$$$$
>  <COMPOUND>
NC(=O)[C@@H](CC1CC1)[C@@H](CCC(F)(F)F)C(=O)N[C@H]1N=C(c2ccccc2)c2cccc(F)c2NC1=O [BMS-983970]

>  <INEQUALITY_OPERATOR>
=

>  <ASSAY_RESULT>
0.102

$$$$
>  <COMPOUND>
CCN(CC)CCN1C(=O)c2c(c3c4cccc(Cl)c4n([C@@H]4O[C@H](CO)[C@@H](OC)[C@H](O)[C@H]4O)c3c3[nH]c4c(Cl)cccc4c23)C1=O [Becatecarin]

>  <INEQUALITY_OPERATOR>
=

>  <ASSAY_RESULT>
7.16

$$$$
